Source: PubChem BioAssay AID1918940

# Test system: NCI-H211 complex spheroid viability
# assay-procedure: Anticancer human tumor NCI-H211 cell line growth inhibition [LSD1]; active = viability on the fitted dose curve at most 10% of control; inactive = the rest;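 note: luminescent viability read after seven days of drug exposure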
# details: second compound 3.16 µM; first compound 0.03 µM
Labels: active, inactive

molecule	qualitative-label
CCN(c1cc(-c2ccc(CN3CCOCC3)cc2)cc(C(=O)NCc2c(C)cc(C)[nH]c2=O)c1C)C1CCOCC1 + NC1CC1c1ccc(-c2cccc(O)c2)cc1	inactive
O=C(C=Cc1cccc(S(=O)(=O)Nc2ccccc2)c1)NO + NC1CC1c1ccc(-c2cccc(O)c2)cc1	active
NS(=O)(=O)OCC1CC(n2ccc3c(NC4CCc5ccccc54)ncnc32)CC1O (centres undefined) + NC1CCC(NC2CC2c2ccccc2)CC1	active
Nc1ccn(C2OC(CO)C(O)C2(F)F)c(=O)n1 (centres undefined) + NC1CCC(NC2CC2c2ccccc2)CC1	active
